testDescription: Apparent permeability of compound across basolateral to apical side in human Caco-2 cells assessed as drug recovery at 10 uM incubated for 5 to 95 mins in presence of GF120918 by LC-MS/MS analysis relative to control
Format: ADME, cell-based
conditionNotes: Caco-2, with GF120918, time 5-95 min, read-out: Drug recovery
reportedProperty: recovery at 10 µM (%)
Your answer is read as %, so omit the unit and give the number.

input: Given the entry "COc1cc(N2CCC(N3CCN(C)CC3)CC2)c(C)cc1Nc1ncc(Br)c(Nc2ccc(C)cc2P(C)(C)=O)n1" , report its measured recovery at 10 µM.
output: 98

====

testDescription: Toxicity in Sprague-Dawley rat assessed as maximum tolerated dose administered as single po dose measured for 14 days
Type: organism-based
conditionNotes: in vivo, time 14 day
reportedProperty: MTD at 336 h (mg/kg)
Your answer is read as mg/kg, so omit the unit and give the number.

input: Given the entry "COc1cc(N2CCC(N3CCN(C)CC3)CC2)c(C)cc1Nc1ncc(Br)c(Nc2ccc(C)cc2P(C)(C)=O)n1" , report its measured MTD at 336 h.
output: 200

input: Given the entry "COc1cc(N2CCC(N3CCN(C)CC3)CC2)ccc1Nc1ncc(Cl)c(Nc2ccccc2P(C)(C)=O)n1" , report its measured MTD at 336 h.
output: 75
